# Target desc: Oxysterols receptor LXR-beta (Homo sapiens)
# Assay summary: ATG_LXRb_TRANS: Attagene TRANS-FACTORIAL HepG2 Assay for human Liver X Receptor beta (LXRb) (AID 2282981)
# Measurement setup: HepG2 Attagene TRANS GAL4-LXRb reporter, mRNA
Results filed as inconclusive are left out. Activity calls are given as the source filed them. Rule for the calls: active = hit-call score of the fitted dose curve at least 0.9, where 1 is the maximum; inconclusive = response in the unintended direction; inactive = score below 0.9.
Outcomes: 1 = active, 0 = inactive

{"Compound": "CCCCCCCCCCCC(=O)Cl", "Assigned category": 0}
{"Compound": "CC(C)(C)c1cc(CCC(=O)NCCCCCCNC(=O)CCc2cc(C(C)(C)C)c(O)c(C(C)(C)C)c2)cc(C(C)(C)C)c1O", "Assigned category": 0}
{"Compound": "C=CC(=O)OCC(F)(F)C(F)(F)C(F)(F)C(F)(F)C(F)(F)C(F)(F)C(F)(F)C(F)F", "Assigned category": 0}
{"Compound": "CCC(C)CO (stereo not given)", "Assigned category": 0}
{"Compound": "Cc1ccc2c(c1)OCC(=O)CO2", "Assigned category": 0}
{"Compound": "CCOC(=O)CC(=O)C(F)(F)C(F)(F)F", "Assigned category": 0}
{"Compound": "CO[Si](C)(CCC(F)(F)C(F)(F)C(F)(F)C(F)(F)C(F)(F)C(F)(F)F)OC", "Assigned category": 0}
{"Compound": "C=CC(=O)OCC(F)(F)C(F)(F)C(F)(F)COC(=O)C=C", "Assigned category": 0}
{"Compound": "CN(C)C(C)(C)CO", "Assigned category": 0}
{"Compound": "O=S(=O)(O)CCC(F)(F)C(F)(F)C(F)(F)C(F)(F)F", "Assigned category": 0}
{"Compound": "CCCCCCCCCCCCCCCCC", "Assigned category": 0}
{"Compound": "FC(F)(F)C(F)(F)C(F)(F)C(F)(F)C(F)(F)C(F)(F)C(F)(F)CCI", "Assigned category": 0}
{"Compound": "NS(=O)(=O)C(F)(F)C(F)(F)C(F)(F)C(F)(F)C(F)(F)C(F)(F)F", "Assigned category": 0}
{"Compound": "CO[Si](CCCOCC1CO1)(OC)OC (stereo not given)", "Assigned category": 0}
{"Compound": "C=C(C)C(=O)OCC(F)(F)C(F)(F)C(F)(F)C(F)F", "Assigned category": 0}
{"Compound": "COC(=O)c1ccc(C=O)cc1", "Assigned category": 0}
{"Compound": "F[Si-2](F)(F)(F)(F)F", "Assigned category": 0}
{"Compound": "OCC(F)(F)C(F)(F)C(F)(F)C(F)(F)C(F)(F)C(F)(F)C(F)(F)C(F)(F)CO", "Assigned category": 0}
{"Compound": "CC1=CCC(=O)O1", "Assigned category": 0}
{"Compound": "O=C1c2ccccc2C(=O)c2c(Cl)cccc21", "Assigned category": 0}
{"Compound": "FC(F)(F)C(F)(F)C(F)(F)C(F)(F)C(F)(F)C(F)(F)CC[Si](Cl)(Cl)Cl", "Assigned category": 0}
{"Compound": "C=CCOC(=O)CC(C)C", "Assigned category": 0}
{"Compound": "Cc1ccc(O)c(-n2nc3ccccc3n2)c1", "Assigned category": 0}
{"Compound": "Cc1cc(O)c(C(C)(C)C)cc1C(C)(C)C", "Assigned category": 1}
{"Compound": "CCCCCCCCCCCCC[N+](C)(C)Cc1ccccc1", "Assigned category": 0}
{"Compound": "COc1ccccc1C=O", "Assigned category": 0}
{"Compound": "OCCCC(F)(F)C(F)(F)C(F)(F)C(F)(F)C(F)(F)C(F)(F)C(F)(F)C(F)(F)F", "Assigned category": 0}
{"Compound": "O=C1c2c(O)ccc(Nc3ccc(CCO)cc3)c2C(=O)c2c([N+](=O)[O-])ccc(O)c21", "Assigned category": 0}
{"Compound": "O=C(O)C(F)(F)C(F)(F)C(F)(F)OC(F)(F)F", "Assigned category": 0}
{"Compound": "CCOC(=O)CCC(C)=O", "Assigned category": 0}
{"Compound": "CCCCCCCCCCCCCC[P+](CCCC)(CCCC)CCCC", "Assigned category": 0}
{"Compound": "NC(=O)C(F)(F)C(F)(F)C(F)(F)F", "Assigned category": 0}
{"Compound": "O=C(Cl)C(F)(F)C(F)(F)C(F)(F)C(F)(F)C(F)(F)C(F)(F)C(F)(F)F", "Assigned category": 0}
{"Compound": "Brc1ccccn1", "Assigned category": 0}
{"Compound": "O=C(O)C(F)(F)C(F)(F)C(F)(F)C(=O)O", "Assigned category": 0}
